Reference source: patent US20250215072A1

- Target Desc: T1, human LRRC33-proTGFβ1 complex (human, UniProt P01137 30-390; Q86YC3 19-650)
- T1 construct: also called hLRRC33-proTGFβ1; hLRRC33
- T1 sequence (P01137 30-390 limits assumed, chain 1 of 2): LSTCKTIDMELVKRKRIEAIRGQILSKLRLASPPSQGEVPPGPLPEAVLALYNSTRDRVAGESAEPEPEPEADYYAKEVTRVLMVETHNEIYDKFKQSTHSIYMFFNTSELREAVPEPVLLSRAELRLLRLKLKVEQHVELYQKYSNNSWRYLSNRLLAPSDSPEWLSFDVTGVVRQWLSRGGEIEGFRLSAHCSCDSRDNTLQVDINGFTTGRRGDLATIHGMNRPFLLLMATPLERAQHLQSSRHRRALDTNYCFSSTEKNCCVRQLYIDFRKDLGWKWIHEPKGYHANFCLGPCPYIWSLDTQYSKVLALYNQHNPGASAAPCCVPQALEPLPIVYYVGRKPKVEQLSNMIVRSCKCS
- T1 sequence (Q86YC3 other isoform, or with tags, fused parts or gaps limits assumed, chain 2 of 2): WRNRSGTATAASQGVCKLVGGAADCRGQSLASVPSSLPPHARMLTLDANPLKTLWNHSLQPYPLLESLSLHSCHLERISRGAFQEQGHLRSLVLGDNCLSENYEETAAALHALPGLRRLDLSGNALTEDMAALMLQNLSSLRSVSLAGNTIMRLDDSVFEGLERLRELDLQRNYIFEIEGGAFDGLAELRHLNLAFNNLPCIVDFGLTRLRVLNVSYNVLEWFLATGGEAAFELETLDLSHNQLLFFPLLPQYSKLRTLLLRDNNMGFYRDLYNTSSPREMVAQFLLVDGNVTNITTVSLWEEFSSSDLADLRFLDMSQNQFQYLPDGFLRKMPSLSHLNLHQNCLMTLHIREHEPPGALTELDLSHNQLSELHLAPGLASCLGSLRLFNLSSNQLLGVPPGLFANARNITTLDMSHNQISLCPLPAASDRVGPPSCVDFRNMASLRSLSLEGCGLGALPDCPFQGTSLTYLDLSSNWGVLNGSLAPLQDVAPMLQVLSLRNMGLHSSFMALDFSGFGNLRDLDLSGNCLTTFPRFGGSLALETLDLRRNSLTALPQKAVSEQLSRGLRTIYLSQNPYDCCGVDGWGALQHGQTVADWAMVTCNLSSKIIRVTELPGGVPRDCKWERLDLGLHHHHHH
- Method Summary: MSD-SET, hIgG4
Experimental Endpoint: Kd (nM)
# output: bare number, implied unit nM

Some binders with known Kd results, for comparison:
Prompt line: Need Kd, item Ab6 (antibody, V domains shown) VH: EVQLVESGGGLVQPGGSLRLSCTASGFTFSSFSMDWVRQAPGKGLEWVSYISPSADTIYYADSVKGRFTISRDNAKNTLYLQMNSLRAEDTAVYYCARGVLDYGDMLMPWGQGTLVTVSS VL: DIQMTQSPSSLSASVGDRVTITCQASQDITNYLNWYQQKPGKAPKLLIYDASNLETGVPSRFSGSGSGTDFTFTISSLQPEDIATYYCQQADNHPPWTFGGGTKVEIKR
Response line: 0.063

Prompt line: // query Kd value for entry Ab31 (antibody, IgG4, V domains shown) VH: EVQLVESGGGLVQPGGSLRLSCAASGFTFSSFSMDWVRQAPGKGLEWVSYISPDASTIYYADSVKGRFTISRDNAKNTLYLQMNSLRAEDTAVYYCARAVLDYGDMLDPWGQGTLVTVSS VL: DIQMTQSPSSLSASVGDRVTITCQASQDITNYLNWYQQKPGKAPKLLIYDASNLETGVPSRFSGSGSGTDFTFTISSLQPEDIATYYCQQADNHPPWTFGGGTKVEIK
Response line: 0.096

Prompt line: Which value of Kd has been reported for Ab2 (antibody, V domains shown) VH: EVQLLESGGGLVQPGGSLRLSCAASGFTFADYAMTWVRQAPGKGLEWVSAISGSGAATYFADSVKGRFTISRDNSKNTLYLQMNSLRAEDTAVYYCARVSSGHWDFDYWGQGTLVTVSS VL: DIQLTQSPSSLSASVGDRVTITCRASQSISSYLNWYQQKPGKAPKLLIYAASNLQSGVPSRFSGSGSGTDFTLTISSLQPEDFATYYCQQTYTVPLTFGGGTKVEIKR in the records?
Response line: 3.2

Prompt line: Name the recorded Kd for Ab12 (antibody, IgG4, V domains shown) VH: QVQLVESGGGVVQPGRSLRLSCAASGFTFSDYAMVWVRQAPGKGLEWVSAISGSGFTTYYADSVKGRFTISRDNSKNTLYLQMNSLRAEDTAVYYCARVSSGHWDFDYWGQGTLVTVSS VL: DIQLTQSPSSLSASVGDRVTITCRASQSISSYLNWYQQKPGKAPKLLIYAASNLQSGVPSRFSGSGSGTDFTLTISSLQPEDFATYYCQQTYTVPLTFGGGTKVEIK .
Response line: 3.2

Further cases:
Prompt line: Param item = Ab11 (antibody, IgG4, V domains shown) VH: EVQLLESGGGLVQPGGSLRLSCAASGFTFRNYAMSWVRQAPGKGLEWVSSISGSGGATYYADSVKGRFTISRDNSKNTLYLQMNSLRAEDTAVYYCARVSSGHWDFDYWGQGTLVTVSS VL: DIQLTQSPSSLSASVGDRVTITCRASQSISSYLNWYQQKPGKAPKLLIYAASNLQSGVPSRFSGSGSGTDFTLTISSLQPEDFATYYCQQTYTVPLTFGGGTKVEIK ; retrieve measured Kd.
Response line: 6.3
